- Tested target: UniProtKB P21554
- Measurement protocol: CB-1 in vitro cAMP (HTRF) assay
- Type: cell-based
- Conditions: HEK cells, cAMP HTRF, 250 nM forskolin; mean where tested more than once; read-out: CB1 HEK_cAMP EC50
pEC50: −log10 of the molar value.
Reported pEC50 values are given for each entry in this list.
Quantity measured: pEC50

> print(dat)
                                    compound     tested.target  readout.relation  measured.result
 1  COC(=O)CN1CCC(n2c(C3CC3)nc3ccc(C(c4ccc(Cl)cc4)c4ccc(Cl)cc4)cc32)CC1 [Example 64]  UniProtKB P21554                 =             8.59
 2  O=C(CO)N1CCC(n2c(C3CC3)nc3ccc(C(c4ccc(Cl)cc4)c4ccc(Cl)cc4)cc32)CC1 [Example 240]  UniProtKB P21554                 =             7.83
 3  COc1cccc(-n2c(C3CC3)nc3ccc(C(c4ccc(Cl)cc4)c4ccc(Cl)cc4)cc32)c1 [Example 181]  UniProtKB P21554                 =             7.60
 4  CCOC(=O)COc1ccc(Cn2c(C3CC3)nc3ccc(C(c4ccc(Cl)cc4)c4ccc(Cl)cc4)cc32)cc1 [Example 175]  UniProtKB P21554                 =             5.27
 5  COC(=O)c1cccc(-n2c(C3CC3)nc3ccc(C(c4ccc(Cl)cc4)c4ccc(Cl)cc4)cc32)c1 [Example 174]  UniProtKB P21554                 =             5.18
 6  O=C(O)c1ccc(Cn2c(C3CC3)nc3ccc(C(c4ccc(Cl)cc4)c4ccc(Cl)cc4)cc32)cc1 [Example 132]  UniProtKB P21554                 <             5.00
 7  Clc1ccc(C(c2ccc3nc(C4CC4)n(C4CCc5ccccc5C4)c3c2)c2nccs2)cc1 (stereo not shown) [Example 342]  UniProtKB P21554                 =             6.73
 8  FC(F)(F)c1nc2ccc(C(c3ccc(Cl)cc3)c3nccs3)cc2n1CCc1cccc(Cl)c1 (stereo not shown) [Example 424]  UniProtKB P21554                 =             5.64
 9  Cc1ccc(S(=O)(=O)N2CCC(n3c(C4CC4)nc4ccc(C(c5ccc(Cl)cc5)c5ccc(Cl)cc5)cc43)CC2)cc1C(=O)O [Example 188]  UniProtKB P21554                 =             6.80
10  CCc1csc(C(c2ccc(Cl)cc2)c2ccc3nc(-c4ccc(Cl)cc4)n(Cc4ccc(Cl)cc4)c3c2)n1 (stereo not shown) [Example 456]  UniProtKB P21554                 <             5.00
11  O=C(O)c1cccc(CN2CCC(n3c(C4CC4)nc4ccc(C(c5ccc(Cl)cc5)c5ccc(C(F)(F)F)cc5)cc43)CC2)c1 (stereo not shown) [Example 99]  UniProtKB P21554                 =             7.73
12  CC(c1cccc(C(=O)O)c1)N1CCC(n2c(C3CC3)nc3ccc(C(c4ccc(Cl)cc4)c4ccc(Cl)cc4)cc32)CC1 (stereo not shown) [Example 87]  UniProtKB P21554                 =             8.05
13  O=C(c1c[nH]nn1)N1CCC(n2c(C3CC3)nc3ccc(C(c4ccccc4)c4ccccc4)cc32)CC1 [Example 198]  UniProtKB P21554                 =             5.32
14  O=C(O)c1ccc(S(=O)(=O)N2CCC(n3c(C4CC4)nc4ccc(C(c5ccc(Cl)cc5)c5ccc(Cl)cc5)cc43)CC2)cc1 [Example 276]  UniProtKB P21554                 =             8.03
15  O=C(c1nc[nH]n1)N1CCC(n2c(C3CC3)nc3ccc(C(c4ccccc4)c4ccccc4)cc32)CC1 [Example 200]  UniProtKB P21554                 =             5.33
16  O=C(O)c1cccc(-c2ccc(CCn3c(C4CC4)nc4ccc(C(c5ccc(Cl)cc5)c5ccc(Cl)cc5)cc43)cc2)c1 [Example 24]  UniProtKB P21554                 =             5.71
17  CCCc1nc2ccc(C(c3ccc(Cl)cc3)c3nccs3)cc2n1CCc1cccc(Cl)c1 (stereo not shown) [Example 410]  UniProtKB P21554                 =             6.51
18  COC(=O)c1cccc(OCCn2c(C3CC3)nc3ccc(C(c4ccc(Cl)cc4)c4ccc(Cl)cc4)cc32)c1 [Example 26]  UniProtKB P21554                 =             6.99
19  Oc1ccc(Cn2c(C3CC3)nc3ccc(C(c4ccc(Cl)cc4)c4ccc(Cl)cc4)cc32)cc1 [Example 183]  UniProtKB P21554                 =             7.50
20  COc1cc(C(c2ccc(Cl)cc2)c2ccc(Cl)cc2)cc2c1nc(C1CC1)n2C1CCN(S(=O)(=O)C(F)(F)F)CC1 [Example 287]  UniProtKB P21554                 =             8.62
21  O=S(=O)(N1CCC(n2c(C3CC3)nc3ccc(C(c4ccc(Cl)cc4)c4ccc(Cl)cc4)cc32)CC1)C(F)(F)F [Example 335]  UniProtKB P21554                 =             8.25
22  CCc1csc(C(c2ccc(Cl)cc2)c2ccc3nc(C)n(Cc4ccc(Cl)cc4)c3c2)n1 (stereo not shown) [Example 452]  UniProtKB P21554                 =             6.09
23  NC(=O)CC(=O)N1CCC(n2c(C3CC3)nc3ccc(C(c4ccc(Cl)cc4)c4ccc(Cl)cc4)cc32)CC1 [Example 278]  UniProtKB P21554                 =             7.30
24  NC(=O)c1ccc(N2CCC(n3c(C4CC4)nc4ccc(C(c5ccc(Cl)cc5)c5ccc(Cl)cc5)cc43)CC2)cc1 [Example 161]  UniProtKB P21554                 =             8.10
25  O=C(O)c1ccc(CN2CCC(n3c(C4CC4)nc4ccc(C(c5ccc(Cl)cc5)c5ccc(Cl)cc5)cc43)CC2)s1 [Example 128]  UniProtKB P21554                 =             8.16
26  O=C(O)c1ccc(Cl)c(CN2CCC(n3c(C4CC4)nc4ccc(C(c5ccc(Cl)cc5)c5ccc(Cl)cc5)cc43)CC2)c1 [Example 94]  UniProtKB P21554                 =             7.58
27  O=C(O)c1ccc(C(=O)N2CCC(n3c(C4CC4)nc4ccc(C(c5ccc(Cl)cc5)c5ccc(Cl)cc5)cc43)CC2)cc1 [Example 246]  UniProtKB P21554                 =             5.84
28  CC(C)(C)OC(=O)N1CC(c2nc3ccc(C(c4ccc(Cl)cc4)c4nccs4)cc3n2CCc2cccc(Cl)c2)C1 (stereo not shown) [Example 406]  UniProtKB P21554                 =             5.77

----------
Reported pEC50 values are given for each entry in this list.
- Tested target: Human CB1R (Cannabinoid receptor 1) (Homo sapiens)
- Sequence (P21554 whole entry): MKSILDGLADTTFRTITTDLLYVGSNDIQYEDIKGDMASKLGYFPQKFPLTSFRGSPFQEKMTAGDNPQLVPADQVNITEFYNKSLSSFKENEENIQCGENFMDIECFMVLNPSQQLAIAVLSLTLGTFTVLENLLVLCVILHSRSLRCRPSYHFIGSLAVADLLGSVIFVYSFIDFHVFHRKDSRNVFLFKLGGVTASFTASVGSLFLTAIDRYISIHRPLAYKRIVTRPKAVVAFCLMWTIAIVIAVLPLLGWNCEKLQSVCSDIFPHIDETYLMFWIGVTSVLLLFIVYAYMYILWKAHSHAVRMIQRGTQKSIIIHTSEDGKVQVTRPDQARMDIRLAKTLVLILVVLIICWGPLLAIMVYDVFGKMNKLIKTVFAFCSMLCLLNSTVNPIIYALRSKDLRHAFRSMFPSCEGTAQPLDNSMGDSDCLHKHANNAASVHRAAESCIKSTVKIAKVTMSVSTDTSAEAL
- Measurement protocol: CB-1 in vitro cAMP (HTRF) assay
- Format: cell-based
- Conditions: HEK cells, cAMP HTRF, 250 nM forskolin; mean where tested more than once; read-out: CB1 HEK_cAMP EC50
pEC50: −log10 of the molar value.
Quantity measured: pEC50

> print(dat)
                                    compound  quantity.measured  measured.result
 1  CC(C)Cc1nc2ccc(C(c3ccc(Cl)cc3)c3nccs3)cc2n1C1CCN(S(=O)(=O)C(F)(F)F)CC1 (stereo not shown) [Example 396]              pEC50             6.66
 2  O=C(O)c1ccc(S(=O)(=O)N2CCC(n3c(C4CC4)nc4ccc(C(c5ccc(Cl)cc5)c5ccc(Cl)cc5)cc43)CC2)o1 [Example 232]              pEC50             7.75
 3  Cc1cc(S(=O)(=O)N2CCC(n3c(C4CC4)nc4ccc(C(c5ccc(Cl)cc5)c5ccc(Cl)cc5)cc43)CC2)ccc1C(N)=O [Example 206]              pEC50             7.00
 4  OC(Cn1c(C2CC2)nc2ccc(C(c3ccc(Cl)cc3)c3ccc(Cl)cc3)cc21)c1ccccc1 (single isomer, unassigned) [Example 289]              pEC50             7.53
 5  COc1cccc(S(=O)(=O)N2CCC(n3c(C4CC4)nc4ccc(C(c5ccc(Cl)cc5)c5ccc(Cl)cc5)cc43)CC2)c1 [Example 261]              pEC50             7.66
 6  O=C(O)c1ccc(O)c(CN2CCC(n3c(C4CC4)nc4ccc(C(c5ccc(Cl)cc5)c5ccc(Cl)cc5)cc43)CC2)c1 [Example 82]              pEC50             6.00
 7  O=C(O)Cc1ccc(N2CCC(n3c(C4CC4)nc4ccc(C(c5ccc(Cl)cc5)c5ccc(Cl)cc5)cc43)CC2)cc1 [Example 157]              pEC50             6.72
 8  O=S(=O)(N1CCC(n2c(-c3ccc(Cl)cc3)nc3ccc(C(c4ccc(Cl)cc4)c4nccs4)cc32)CC1)C(F)(F)F (stereo not shown) [Example 394]              pEC50             5.32
 9  O=S(=O)(CCN1CCNCC1)N1CCC(n2c(C3CC3)nc3ccc(C(c4ccc(Cl)cc4)c4ccc(Cl)cc4)cc32)CC1 [Example 45]              pEC50             6.23
10  O=S(=O)(N1CCC(n2c(C3CCCC3)nc3ccc(C(c4ccc(Cl)cc4)c4nccs4)cc32)CC1)C(F)(F)F (stereo not shown) [Example 395]              pEC50             6.86
11  NS(=O)(=O)N1CCC(n2c(C3CC3)nc3ccc(C(c4ccc(Cl)cc4)c4ccc(Cl)cc4)cc32)CC1 [Example 274]              pEC50             6.88
12  Clc1ccc(C(c2ccc3nc(-c4ccoc4)n(-c4cccc(Cl)c4)c3c2)c2nccs2)cc1 (stereo not shown) [Example 376]              pEC50             6.36
13  O=C(O)c1ccc(-c2cccc(CCn3c(C4CC4)nc4ccc(C(c5ccc(Cl)cc5)c5ccc(Cl)cc5)cc43)c2)cc1 [Example 17]              pEC50             7.08
